- Subject of test: recombinant soluble homotrimeric HA of A/Vietnam/1203/04 (H5N1) (Influenza A virus A/VietNam/1203/2004(H5N1))
- Assay text: HA microarray, BCC supernatant
- Condition notes: remark: other sources report otherwise
Readings of log10 of Trimeric HA Binding: RLU for the listed binders
All values: base-10 log of Trimeric HA Binding: RLU in RLU.

For TCN-552 (5249_I23) (antibody, V domains shown) VH: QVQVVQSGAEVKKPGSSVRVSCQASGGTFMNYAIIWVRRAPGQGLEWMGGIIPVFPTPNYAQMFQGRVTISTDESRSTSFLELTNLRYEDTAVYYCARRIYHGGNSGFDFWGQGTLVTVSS VL: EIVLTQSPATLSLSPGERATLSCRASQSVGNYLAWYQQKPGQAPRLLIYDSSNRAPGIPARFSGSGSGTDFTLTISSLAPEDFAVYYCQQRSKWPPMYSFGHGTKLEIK , what is its reported log10 of Trimeric HA Binding: RLU?
3.44

Same read-out for TCN-546 (5089_L08) (antibody, V domains shown) VH: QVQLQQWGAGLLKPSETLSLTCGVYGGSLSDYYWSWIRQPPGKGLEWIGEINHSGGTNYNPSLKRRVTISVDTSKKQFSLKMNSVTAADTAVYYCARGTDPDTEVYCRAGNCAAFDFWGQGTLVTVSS VL: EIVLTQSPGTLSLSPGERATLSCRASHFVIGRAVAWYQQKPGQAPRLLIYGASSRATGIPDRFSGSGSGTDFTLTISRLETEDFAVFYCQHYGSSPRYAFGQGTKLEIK ?
2.54

Same read-out for TCN-534 (5249_B02) (antibody, V domains shown) VH: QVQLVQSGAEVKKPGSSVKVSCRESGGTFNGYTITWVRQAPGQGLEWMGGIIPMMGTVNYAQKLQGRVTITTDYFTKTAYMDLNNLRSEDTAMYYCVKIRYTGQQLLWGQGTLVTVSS VL: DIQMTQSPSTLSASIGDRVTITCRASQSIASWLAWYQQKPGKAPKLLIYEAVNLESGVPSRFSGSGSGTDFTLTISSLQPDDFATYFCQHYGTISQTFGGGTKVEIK ?
3.54

Same read-out for TCN-545 (5082_I15) (antibody, V domains shown) VH: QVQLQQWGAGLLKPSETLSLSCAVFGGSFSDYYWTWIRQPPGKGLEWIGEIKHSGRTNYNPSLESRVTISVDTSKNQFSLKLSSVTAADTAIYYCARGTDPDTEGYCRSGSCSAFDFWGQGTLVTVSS VL: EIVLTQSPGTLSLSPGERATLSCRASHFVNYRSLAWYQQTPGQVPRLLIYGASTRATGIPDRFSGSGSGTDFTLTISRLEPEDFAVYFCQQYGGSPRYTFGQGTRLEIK ?
2.37

Same read-out for TCN-555 (5246_L16) (antibody, V domains shown) VH: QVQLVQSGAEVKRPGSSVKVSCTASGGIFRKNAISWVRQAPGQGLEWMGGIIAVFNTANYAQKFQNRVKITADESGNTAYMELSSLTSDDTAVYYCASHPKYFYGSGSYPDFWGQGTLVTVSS VL: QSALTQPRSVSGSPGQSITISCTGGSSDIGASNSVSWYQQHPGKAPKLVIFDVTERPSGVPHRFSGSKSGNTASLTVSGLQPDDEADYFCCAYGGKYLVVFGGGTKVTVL ?
2.94
